Task for the reader: assign each of the following molecules its reported pIC50.
Target: aryl hydrocarbon receptor (AhR) (Homo sapiens)
Construct: DRE-Luc HepG2 cells subcultured in a 225 cm^2 flask; endogenous in cells; host or cells: HepG2 (ATCC), stably transfected with the reporter hCYP1A1/pGL4.27 (DRE-Luc HepG2)
Sequence (P35869 11-848): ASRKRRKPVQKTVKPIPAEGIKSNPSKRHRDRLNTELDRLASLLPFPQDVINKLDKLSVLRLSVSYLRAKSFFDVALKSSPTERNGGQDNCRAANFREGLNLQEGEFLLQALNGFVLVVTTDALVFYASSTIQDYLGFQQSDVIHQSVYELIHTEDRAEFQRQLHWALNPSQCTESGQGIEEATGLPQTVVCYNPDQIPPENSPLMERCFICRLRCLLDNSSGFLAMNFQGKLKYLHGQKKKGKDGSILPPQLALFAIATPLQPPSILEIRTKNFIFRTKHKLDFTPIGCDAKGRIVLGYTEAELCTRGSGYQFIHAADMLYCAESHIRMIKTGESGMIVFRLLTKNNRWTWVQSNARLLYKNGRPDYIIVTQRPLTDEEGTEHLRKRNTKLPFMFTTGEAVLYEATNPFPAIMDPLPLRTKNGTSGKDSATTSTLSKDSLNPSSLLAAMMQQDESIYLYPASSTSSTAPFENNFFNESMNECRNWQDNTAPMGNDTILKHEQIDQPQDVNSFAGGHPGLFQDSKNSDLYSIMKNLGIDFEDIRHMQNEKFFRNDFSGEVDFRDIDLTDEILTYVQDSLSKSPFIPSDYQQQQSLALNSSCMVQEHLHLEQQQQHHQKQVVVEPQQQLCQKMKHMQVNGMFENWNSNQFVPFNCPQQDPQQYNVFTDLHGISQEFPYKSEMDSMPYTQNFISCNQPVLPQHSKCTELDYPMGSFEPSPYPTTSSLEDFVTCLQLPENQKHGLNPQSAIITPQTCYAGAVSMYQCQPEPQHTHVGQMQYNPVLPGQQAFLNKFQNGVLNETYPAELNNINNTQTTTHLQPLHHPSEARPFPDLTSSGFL
Experiment: AhR reporter gene assay (aryl hydrocarbon receptor antagonist activity, DRE-Luc HepG2 cells, TCDD-stimulated luciferase)
Assay type: cell-based
Just so you know, pIC50 here is -log10 of the concentration in molar units; reply with that number alone.

QUERY: Item under review: COc1cccc(-c2cc(CCNc3nc(-c4cncc(F)c4)nc4c3nc3n4C(C)(C)CO3)ccc2O)c1 . Reported pIC50?
RESULT: 7.54

QUERY: Name the recorded pIC50 for CC1(C)CSc2nc3c(NCCc4ccc(O)c(-c5ccccc5F)c4)nc(-c4cncc(F)c4)nc3n21 .
RESULT: 9.96

QUERY: Reported pIC50, molecule CC1(C)COc2nc3c(NCCc4ccc(O)c(-c5c(F)cccc5F)c4)nc(-c4cncc(F)c4)nc3n21 : ____
RESULT: 8.46

QUERY: What value of measured pIC50 is listed for CC1(C)COc2nc3c(NCCc4ccc(O)c(-c5csc6ccccc56)c4)nc(-c4cncc(F)c4)nc3n21 ?
RESULT: 7.92

* * *

Give pIC50 for every item shown.
Target: aryl hydrocarbon receptor (AhR) (Homo sapiens)
Construct: DRE-Luc HepG2 cells subcultured in a 225 cm^2 flask; endogenous in cells
Assay: AhR reporter gene assay (aryl hydrocarbon receptor antagonist activity, DRE-Luc HepG2 cells, TCDD-stimulated luciferase)
When answering, recall that pIC50 equals minus log10 of the concentration in mol/L, and write that number alone.

QUERY: # lookup: pIC50 of Oc1ccc(CCNc2nc(-c3cncc(F)c3)nc3c2nc2n3CCCS2)cc1-c1ccccc1F [Example 145]
RESULT: 8.89

QUERY: Look up pIC50: Cc1cncc(-c2cc(CCNc3nc(-c4cncc(F)c4)nc4c3nc3n4C(C)(C)CO3)ccc2O)c1 [Example 72]
RESULT: 8.01

QUERY: Quick check: pIC50 of CC1(C)COc2nc3c(NCCc4ccc(O)c(-c5cc(C#N)ccc5F)c4)nc(-c4cncc(F)c4)nc3n21 [Example 54] ?
RESULT: 8.39

QUERY: Form field: reported pIC50 of CN(C)C(=O)Cc1cccc(-c2cc(CCNc3nc(-c4cncc(F)c4)nc4c3nc3n4C(C)(C)CO3)ccc2O)c1 [Example 79]
RESULT: 8.18

QUERY: Please look up its pIC50: Oc1ccc(CCNc2nc(-c3cncc(F)c3)nc3c2nc2n3CCS2)cc1-c1ccccc1F [Example 142]
RESULT: 9.05

QUERY: Entry C[C@@H]1CSc2nc3c(NCCc4ccc(O)c(-c5cccc(C#N)c5)c4)nc(-c4cncc(C#N)c4)nc3n21 [Example 61] : reported pIC50 = ?
RESULT: 9.15

* * *

Target: aryl hydrocarbon receptor (AhR) (Homo sapiens)
Construct: DRE-Luc HepG2 cells subcultured in a 225 cm^2 flask; endogenous in cells
Assay: AhR reporter gene assay (aryl hydrocarbon receptor antagonist activity, DRE-Luc HepG2 cells, TCDD-stimulated luciferase)
Note to self: use true (1) only for IC50 readings below 0.6 nM; a reading exactly at 0.6 nM still gets false (0).

QUERY: Is IC50 of Cc1cncc(-c2nc(NCCc3ccc(O)c(-c4ccccc4F)c3)c3nc4n(c3n2)C(C)(C)CO4)c1 strictly below 0.6 nM?
RESULT: false (0)

QUERY: In the record for C[C@@H]1CSc2nc3c(NCCc4ccc(O)c(-c5ccccc5)c4)nc(-c4cncc(F)c4)nc3n21 , is IC50 less than 0.6 nM?
RESULT: true (1)

QUERY: I wonder whether CC1(C)COc2nc3c(NCCc4ccc(O)c(-c5ccc(Cl)cc5)c4)nc(-c4cncc(F)c4)nc3n21 has IC50 below 0.6 nM. Can you tell?
RESULT: false (0)

QUERY: Report whether reported IC50 is lower than 0.6 nM (strictly) for C[C@H]1CSc2nc3c(NCCc4ccc(O)c(-c5cccc(F)c5)c4)nc(-c4cncc(F)c4)nc3n21
RESULT: true (1)

QUERY: Problem: For the molecule CC1(C)COc2nc3c(NCCc4ccc(O)c(-c5cccc(F)c5F)c4)nc(-c4cncc(F)c4)nc3n21 , is IC50 under 0.6 nM?
RESULT: false (0)

QUERY: Here's an entry: CC1(C)COc2nc3c(NCCc4c[nH]c5ccccc45)nc(-c4cc(F)ccc4F)nc3n21 . Is its IC50 below 0.6 nM?
RESULT: false (0)
